# System under test: VLP2 (virus-like particles, capsid protein particles of AAV serotype 2) (AAV serotype 2 (AAV2)) (UniProt P03135)
# Sequence (P03135 whole entry): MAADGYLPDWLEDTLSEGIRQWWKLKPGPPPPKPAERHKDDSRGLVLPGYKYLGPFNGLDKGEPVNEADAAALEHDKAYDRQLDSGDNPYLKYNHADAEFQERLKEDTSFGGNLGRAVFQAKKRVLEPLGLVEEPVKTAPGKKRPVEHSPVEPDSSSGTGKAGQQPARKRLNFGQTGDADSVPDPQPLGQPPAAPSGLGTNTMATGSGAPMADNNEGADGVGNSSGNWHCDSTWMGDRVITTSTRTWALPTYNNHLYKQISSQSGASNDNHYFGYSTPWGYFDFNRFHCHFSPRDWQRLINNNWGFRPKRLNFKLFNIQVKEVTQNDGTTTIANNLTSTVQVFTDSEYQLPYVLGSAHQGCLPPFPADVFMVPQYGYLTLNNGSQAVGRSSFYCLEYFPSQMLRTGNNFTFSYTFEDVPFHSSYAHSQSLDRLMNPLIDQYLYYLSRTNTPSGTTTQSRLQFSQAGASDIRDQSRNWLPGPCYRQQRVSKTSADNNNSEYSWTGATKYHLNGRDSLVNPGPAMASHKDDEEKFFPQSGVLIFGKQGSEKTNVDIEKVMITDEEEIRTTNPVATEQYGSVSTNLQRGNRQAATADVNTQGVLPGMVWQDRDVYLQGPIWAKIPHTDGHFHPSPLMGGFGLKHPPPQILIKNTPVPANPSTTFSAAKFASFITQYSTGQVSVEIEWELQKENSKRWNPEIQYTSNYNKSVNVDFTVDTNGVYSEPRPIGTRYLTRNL
# Run description: ELISA on immobilised VLP2 (purified protein, 5 µg/mL); A450 after 1:1 1 M NaOH with 1 mM CaCl2, 30°C, 30 min divided by A450 at 0 time
Readout: Remaining activity [%] (%)
Kindly answer with a numeric value in %, unit omitted.

Take a look at these entries with their results.
| Binder | Unit | Remaining activity [%] |
| --- | --- | --- |
| AVR31 (AVR25c with G314D, I366F, V394A, K455R, K497E, V499I) (receptor) MGSADESDQITLPKHEAQLKVYVLLVPPKGEASTYDWQLITHPRDYSGEMEGEHSQFLKLSNLTPGLYEYRAVVEGQNAHSEGYANVTVEPGPRKNRPPIAIVSPQFQEISLPTTSAVIDGSQSTDDDKIVQYHWEELKGPLREERISEDTPILKLSNLVPGNYTFRLTVVDTDGATDSTTADLTVNEAIDHHHHHH | % | 48.3 |
| AVR29c (AVR25c with I366F, V394A, K455R, K497E) (receptor) MGSAGESDQITLPKHEAQLKVYVLLVPPKGEASTYDWQLITHPRDYSGEMEGEHSQFLKLSNLTPGLYEYRAVVEGQNAHSEGYANVTVEPGPRKNRPPIAIVSPQFQEISLPTTSAVIDGSQSTDDDKIVQYHWEELKGPLREERISEDTPILKLSNLVPGNYTFRLTVVDTDGATDSTTADLTVNEAVDHHHHHH | % | 57.7 |

Provide measured Remaining activity [%] value, entry: AVR28 (AVR25c with I366F, V394A, K455R) (receptor) MGSAGESDQITLPKHEAQLKVYVLLVPPKGEASTYDWQLITHPRDYSGEMEGEHSQFLKLSNLTPGLYEYRAVVEGQNAHSEGYANVTVEPGPRKNRPPIAIVSPQFQEISLPTTSAVIDGSQSTDDDKIVQYHWEELKGPLREERISEDTPILKLSNLVPGNYTFRLTVVDTDGATDSTTADLTVNKAVDHHHHHH 42

In one line, give reported Remaining activity [%] of the entry AVR25c (AVR25a with K467N) (receptor) MGSAGESDQITLPKHEAQLKVYVLLVPPKGEASTYDWQLITHPRDYSGEMEGEHSQILKLSNLTPGLYEYRAVVEGQNAHSEGYVNVTVEPGPRKNRPPIAIVSPQFQEISLPTTSAVIDGSQSTDDDKIVQYHWEELKGPLREEKISEDTPILKLSNLVPGNYTFRLTVVDTDGATDSTTADLTVNKAVDHHHHHH . 22
